Data provenance: the supplement of paper PMC9170038

Overview of recorded apparent KD of MS2 coat protein for various sequences
# Tested on: MS2 coat protein
# protocol_details: apparent KD of MS2 coat protein; higher = weaker reporter binding
# stated_conditions: Eterna round: R107; input ligand: theophylline 20 uM
# number then unit; no other words

Worked examples follow.
GGAAUAACGAUUGAUACCAGCAUGUUAACAUGAGGAUCACCCAUGUUAAGGAUAACAUAAUGCCCUUGGCAGCAACGGAAACCCG [#23Same State - Theophylline B] : 19.2 nM
UAAUAAUUCCUCAUGUCACGAGUGGCAUAACGAGGACCGGUACGGCCGCCACUCGAACAUGAGGAUCACCCAUGUAGCCACUCGA [M'-T'-T-MS2-T'' - Design 4] : 286 nM
GCCGGGCCCUCGGCCGCCACUGAGAGAGUCGUGUGAACAUGAGGAUCACCCAUGUAAUAUAUAUACAGGACCGGGAGGGCCCGGC [4.W] : 21.8 nM
UUCAGCUAGUCGGCCGCCACUACUUGAGGAUCACCCAAGUAAUCCUAACACUGCUUCGGCAGUGGUAGGACCGGGACUAGCUGAG : 12 nM
GACCACAUGAGGAUCACCCAUGUCUUGGUCCGAGGACCGGUACGGCCGCCACUCGAGAGCCGUACAAAUAAACGGAGUGCCAUCA [theeternabot_sameState_MS2_Trp_A_31] : 19.6 nM

In: What value of measured apparent KD of MS2 coat protein is listed for CCGGCCGCAUGAAGGAGCGCACAGCGCUCGCACAUGAGGAUCACCCAUGUAAAUGGGUGCGUGCAGGUAGGUCGCAUGCAGGCAA [Lesobete] ?
Out: 544 nM

---

# Tested on: K4 kissing-loop RNA reporter;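 further: bound reporter read as fluorescence of individual clusters on recovered sequencing chips by microscopy, with normalized cluster intensities fitted with a binding model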
# protocol_details: apparent KD of K4 kissing-loop reporter; higher = weaker reporter binding
# stated_conditions: Eterna round: R107; input ligand: FMN 200 uM
measurement_kind: apparent KD of K4 kissing-loop reporter (nM)
Give the value in nM but do not write nM after it.

These recorded examples may help you get a feel for the data.
CCGUGGAGUGAUGUUCCACGUACUACGGAUACCAGCUUUGCCAAAGGCCCUUGGCAGCCGCACGUUGCAGUGAUGUUGUGGCGCG [Same State Theophylline A G9] : 345
GCUGUCCAGUUCGAUACCAGAGUUAUCGCACUGUAGUGAUAAAGUGAUGUUUUAUCAGUCCUCCCUUGGCAGCGAUGCCCGGCUG [theeternabot_exclusion_KL_Theo_B_25] : 164
UGAUACCAGACUGAUACCAGCCAGUGAUGUUGGCUAAGCCAAAUAGGUGUCAAAGACACCGGCCCUUGGCAGCAGUCUGGUAUCU [TheoBX 2 #SwitchBubble #StaticStem] : 133
UCUCAUCUCAGAAGGAGCGUGAGAGAAUAUUAGAAAUCGUCGAGUGAUGUUCGACGUCUCUCACAGGUAGGUCGCUGAGACGUCA [Arg B SS t9] : 111

Attention now shifts to the item below.
In: So what's the measured apparent KD of K4 kissing-loop reporter for this one? UGAUACCAGACUGAUACCAGCAAGUGAUGUUUGUUGAUCAAAAGCAGUCAAAGACUGCUUUGCCCUUGGCAGCAGUCUGGUAUCU [#10 K4 Theophylline B Exclusion]
Out: 167

---

# Tested on: MS2 coat protein
# protocol_details: apparent KD of MS2 coat protein; higher = weaker reporter binding
# stated_conditions: Eterna round: R107; input ligand: arginine 13.2 mM
measurement_kind: apparent KD of MS2 coat protein (nM)
Answer format: numeric, nM implied, no suffix.

Completed entries (count: 2):
CCUCAUGUGGUGCUGCACAUGAGAGGUGAUACCAGCAUCGAAAGAUGCCCUUGGCAGCACCAACAUGAGGAUCACCCAUGUAAUA [(M)'-(T)'-(M)''-(T1)-(T2)-(M1)-(M2)_Design1] : 27
UGUCAUGGAAACAUGACAGGUUCUACCGGUCGAGGACCGGUACGGCCGCCACUCGAUUGGUGGCACAUGAGGAUCACCCAUGUUA [SS Tryp A #15] : 24.1

In: Reported apparent KD of MS2 coat protein for UGUAUGGACUGAAGGAGCGGGUUGAUAAUCUGAGGAUCACCCAGGUAAAAGGCGAAAGCCACCCAGGUAGGUCGCAGUCCAUACU : what is it?
Out: 23.8
